- assay details: Mammalian toxicity in vitro, MTT colorimetric method
- Type: cell-based, Murine
- condition parameters: mouse, NCTC clone 929 fibroblasts, pH 7.2, NCTC clone 929 cells, up to 200 μM
Please provide measured CC50 at 96 h for the entries that follow.

Tell me the measured CC50 at 96 h of C=CCc1cc(OC)c(O)c(Oc2ccc(CCC)cc2OC)c1 , please.
42 µM

Tell me the measured CC50 at 96 h of CCCc1ccc(Oc2cc(CN3CCOCC3)cc(OC)c2OCc2ccc(OC)cc2)c(OC)c1 , please.
> 200 µM

Tell me the measured CC50 at 96 h of C=CCc1cc(OC)c(OCc2ccc(OC)cc2)c(Oc2ccccc2OC)c1 , please.
> 200 µM

Tell me the measured CC50 at 96 h of C=CCc1ccc(Oc2cc(CC=C)cc(OC)c2OCCN2CCCC2)c(OC)c1 , please.
24.9 µM

Tell me the measured CC50 at 96 h of C=CCc1cc(OC)cc(Oc2ccc(CC=C)cc2OC)c1 , please.
> 200 µM

Tell me the measured CC50 at 96 h of C=CCc1ccc(Oc2cc(CC=C)cc(OC)c2OCC(=O)N2CCOCC2)c(OC)c1 , please.
112 µM

Tell me the measured CC50 at 96 h of C=CCc1ccc(Oc2cccc(OC)c2OC)c(OC)c1 , please.
> 200 µM

Tell me the measured CC50 at 96 h of C=CCc1cc(OC)c(OC(C)=O)c(Oc2ccccc2OC)c1 , please.
> 200 µM

Tell me the measured CC50 at 96 h of C=CCc1cc(OC)c(OCc2ccc(OC)cc2)c(Oc2ccc(CN3CCOCC3)cc2OC)c1 , please.
> 200 µM

----------
- assay details: Mammalian toxicity in vitro, MTT colorimetric method
- Assay type: cell-based, Murine
- condition parameters: mouse, NCTC clone 929 fibroblasts, pH 7.2, NCTC clone 929 cells, up to 200 μM
recorded metric: CC50 at 96 h (µM)
Please give a number only; it is taken to be in µM.

Tell me the measured CC50 at 96 h of C=CCc1cc(OC)c(O)c(Oc2ccccc2OC)c1 , please.
31.6

Tell me the measured CC50 at 96 h of CCCc1ccc(Oc2cc(CN3CCCCC3)cc(OC)c2OCc2ccc(OC)cc2)cc1 , please.
22.7

Tell me the measured CC50 at 96 h of C=CCc1ccc(Oc2cc(CC=C)cc(OC)c2O)cc1 , please.
123

Tell me the measured CC50 at 96 h of CCCc1cc(OC)c(OCc2ccc(OC)cc2)c(Oc2ccc(CN3CCCCC3)cc2OC)c1 , please.
14.5

Tell me the measured CC50 at 96 h of C=CCc1ccc(O)c(Oc2ccc(CC=C)cc2OC)c1 , please.
129

Tell me the measured CC50 at 96 h of CCCCCCCCCCCCCCCCOP(=O)([O-])OCC[N+](C)(C)C [Milt., miltefosine, reference compound] , please.
120

Tell me the measured CC50 at 96 h of C=CCc1ccc(Oc2cc(CCC)cc(OC)c2O)c(OC)c1 , please.
14.2

Tell me the measured CC50 at 96 h of C=CCc1ccc(Oc2cc(CC=C)cc(OC)c2OCC(=O)N2CCCC2)c(OC)c1 , please.
52.9

Tell me the measured CC50 at 96 h of C=CCc1cc(OC)c(OCc2ccc(OC)cc2)c(Oc2ccc(CN3CCCC3)cc2OC)c1 , please.
6.2

Tell me the measured CC50 at 96 h of CCCc1ccc(OCc2ccc(OC)cc2)c(Oc2ccc(CN3CCOCC3)cc2OC)c1 , please.
33.8

Tell me the measured CC50 at 96 h of C=CCc1cc(OC)c(O)c(Oc2ccc(CN3CCCC3)cc2OC)c1 , please.
43.3

Tell me the measured CC50 at 96 h of C=CCc1cc(OC)c(O)c(Oc2ccc(CN3CCOCC3)cc2OC)c1 , please.
51.4

Tell me the measured CC50 at 96 h of COc1ccc(COc2c(OC)cc(CN3CCOCC3)cc2Oc2ccc(CN3CCOCC3)cc2OC)cc1 , please.
74.4

Tell me the measured CC50 at 96 h of CCCc1cc(OC)c(OCc2ccc(OC)cc2)c(Oc2ccc(CN3CCOCC3)cc2OC)c1 , please.
74.4

Tell me the measured CC50 at 96 h of C=CCc1ccc(Oc2cc(CC=C)cc(OC)c2OCCN2CCOCC2)c(OC)c1 , please.
63.7
